# credit: patent US9663478B2

- System: Vero cells
- recorded-conditions: African green monkey, 72 h
// values below are reported Vero Tox CC50
assay-readout: Vero Tox CC50 (µg/mL)

molecule | quantity-unit | readout-number
[O-][n+]1nc(N2CCCC2)[n+]([O-])c2ccccc21 [Compound 17q] | µg/mL | 17
[O-][n+]1nc(N2CCCCC2)[n+]([O-])c2cc3c(cc21)CCC3 [Compound 20r] | µg/mL | 21
[O-][n+]1nc(NC2CCC2)[n+]([O-])c2ccc(F)cc21 [Compound 15ad] | µg/mL | 1.6
C[C@@H](Nc1n[n+]([O-])c2ccccc2[n+]1[O-])C1CCCCC1 [Compound 8k] | µg/mL | 8.9
[O-][n+]1nc(N[C@@H]2C[C@H]3CC[C@@H]2C3)[n+]([O-])c2ccc(Cl)cc21 [Compound 15bm] | µg/mL | 1.1

====

// values below are reported log10(MIC)
- System: Mtb H37Rv
- assay-details: TB MIC - SRI, resazurin-based microplate assay
- Assay type: cell-based, Mycobacterium tuberculosis
- recorded-conditions: Mycobacterium tuberculosis, H37RV, Tables P1-P3; read-out: TB MIC - SRI
assay-readout: log10(MIC) (log10 of the value in µg/mL)

compound | readout-number
CC(C)CCC(C)Nc1n[n+]([O-])c2ccccc2[n+]1[O-] (centres unmarked) | 0.10
[O-][n+]1nc(NC2CC2)[n+]([O-])c2ccc(F)cc21 | -0.51
CC(Nc1n[n+]([O-])c2cc(F)ccc2[n+]1[O-])C(C)(C)C (centres unmarked) | 0.10
O=S1(=O)CCN(c2n[n+]([O-])c3cc4c(cc3[n+]2[O-])CCC4)CC1 | 0.70
CC(Nc1n[n+]([O-])c2ccccc2[n+]1[O-])C(C)(C)C (centres unmarked) | 0.70
[O-][n+]1nc(NC2CCC2)[n+]([O-])c2ccc(Br)cc21 | -0.81
CCC(COC)Nc1n[n+]([O-])c2cc(F)ccc2[n+]1[O-] (centres unmarked) | 0.70
CCNc1n[n+]([O-])c2cc(F)ccc2[n+]1[O-] | -0.20
[O-][n+]1nc(N[C@@H]2C[C@H]3CC[C@@H]2C3)[n+]([O-])c2ccc(Cl)cc21 (racemic) | -0.81
[O-][n+]1nc(N2CCCCC2)[n+]([O-])c2cc3c(cc21)CCC3 | -0.20
[O-][n+]1nc(N[C@@H]2C[C@H]3CC[C@@H]2C3)[n+]([O-])c2ccc(F)cc21 (racemic) | -0.51
CC1CC(Nc2n[n+]([O-])c3ccccc3[n+]2[O-])CC(C)(C)C1 (centres unmarked) | 0.10
COc1ccc2c(c1)[n+]([O-])nc(NC1CCC1)[n+]2[O-] | -0.20
Cc1cccc2c1[n+]([O-])c(NC1CCC1)n[n+]2[O-] | -0.51
C[C@@H](Nc1n[n+]([O-])c2ccccc2[n+]1[O-])C1CCCCC1 (racemic) | 0.10
[O-][n+]1nc(NC2[C@H]3C[C@@H]4C[C@@H](C[C@H]2C4)C3)[n+]([O-])c2ccccc21 (some centres unmarked) | 0.40
Cc1cc2c(cc1C)[n+]([O-])c(NC1CCC1)n[n+]2[O-] | -0.20

====

- assay-details: MP MTT % viable (Table E1)
- recorded-conditions: MP (so in the source)

compound | viability at 0.01 ug/ml
[O-][n+]1nc(N2CCC(c3ccc(F)cc3)C2)[n+]([O-])c2cc3c(cc21)CCC3 (stereo not drawn) [Cmpd 17] | 104%
[O-][n+]1nc(N2CC3CCCC3C2)[n+]([O-])c2cc3c(cc21)CCC3 (stereo not drawn) [Cmpd 10] | 103%
[O-][n+]1nc(N2CCC(c3ccccc3Cl)C2)[n+]([O-])c2cc3c(cc21)CCC3 (stereo not drawn) [Cmpd 15] | 102%
COc1ccc(CN(C)c2n[n+]([O-])c3cc4c(cc3[n+]2[O-])CCC4)cc1 [Cmpd 12] | 121%
CN(Cc1ccc(F)cc1)c1n[n+]([O-])c2cc3c(cc2[n+]1[O-])CCC3 [Cmpd 14] | 112%
[O-][n+]1nc(N2CCC(c3ccccc3F)C2)[n+]([O-])c2cc3c(cc21)CCC3 (stereo not drawn) [Cmpd 13] | 161%
COc1cccc(C2CCN(c3n[n+]([O-])c4cc5c(cc4[n+]3[O-])CCC5)C2)c1OC (stereo not drawn) [Cmpd 18] | 85%
CN(Cc1ccc(C(F)(F)F)cc1)c1n[n+]([O-])c2cc3c(cc2[n+]1[O-])CCC3 [Cmpd 11] | 113%
COc1ccc(OC)c(C2CCN(c3n[n+]([O-])c4cc5c(cc4[n+]3[O-])CCC5)C2)c1 (stereo not drawn) [Cmpd 16] | 122%

====

- System: Mtb H37Rv
- assay-details: TB MIC - SRI, resazurin-based microplate assay
- Format: cell-based, Mycobacterium tuberculosis
- recorded-conditions: Mycobacterium tuberculosis, H37RV, read-out: Activity against H37Rv, Table P4
// values below are reported MIC

compound | MIC (mg/L)
CCNc1n[n+]([O-])c2cc3c(cc2[n+]1[O-])CCCC3 | 1.25
CCNc1n[n+]([O-])c2cc3c(cc2[n+]1[O-])CCC3 | 1.25
[O-][n+]1nc(NC2CCC2)[n+]([O-])c2cc3c(cc21)CCCC3 | 1.25
[O-][n+]1nc(NC2CC3CCC2C3)[n+]([O-])c2cc3c(cc21)CCCC3 (centres unmarked) | 1.25
[O-][n+]1nc(N2CCCC2)[n+]([O-])c2cc3c(cc21)CCC3 | 0.62

====

// values below are reported VERO Tox-SRI
- Tested on: Vero cells
- recorded-conditions: African green monkey, 72 h

compound | system-name | bound-operator | VERO Tox-SRI
CCNc1n[n+]([O-])c2cc3c(cc2[n+]1[O-])CCCC3 [SRI-012496] | Vero cells | = | 21.78
Cc1cc2c(cc1C)[n+]([O-])c(NC1CCC1)n[n+]2[O-] [SRI-012459] | Vero cells | = | 21.8
[O-][n+]1nc(NC2CCC2)[n+]([O-])c2ccc(F)cc21 [SRI-012276] | Vero cells | = | 2.5
CCNc1n[n+]([O-])c2cc(C)c(OC)cc2[n+]1[O-] [SRI-012468] | Vero cells | = | 100
Cc1cccc2c1[n+]([O-])c(NC1CCC1)n[n+]2[O-] [SRI-012460] | Vero cells | = | 21.8
CCC(CC)Nc1n[n+]([O-])c2cc(F)ccc2[n+]1[O-] [SRI-012279] | Vero cells | = | 4.4
CCNc1n[n+]([O-])c2cc(F)ccc2[n+]1[O-] [SRI-012284] | Vero cells | = | 4.6
CCNc1n[n+]([O-])c2cc(OC)ccc2[n+]1[O-] [SRI-012285] | Vero cells | = | 15.8
[O-][n+]1nc(NC2CCCC2)[n+]([O-])c2ccc(F)cc21 [SRI-012277] | Vero cells | = | 2.3
[O-][n+]1nc(NC2CCC2)[n+]([O-])c2cc3c(cc21)CCC3 [SRI-012403] | Vero cells | = | 33.6
CCNc1n[n+]([O-])c2cc3c(cc2[n+]1[O-])CCC3 [SRI-012286] | Vero cells | = | 36.0
[O-][n+]1nc(NC2CC2)[n+]([O-])c2ccc(Cl)cc21 [SRI-012301] | Vero cells | = | 1.36
Cc1cccc2c1[n+]([O-])c(N[C@@H]1C[C@H]3CC[C@@H]1C3)n[n+]2[O-] (racemic) [SRI-012461] | Vero cells | = | 2.3
[O-][n+]1nc(NC2CCCCC2)[n+]([O-])c2ccc(Cl)cc21 [SRI-012303] | Vero cells | = | 2.62
CCC(COC)Nc1n[n+]([O-])c2cc(Cl)ccc2[n+]1[O-] (stereo not drawn) [SRI-012304] | Vero cells | = | 2.6
CC(Nc1n[n+]([O-])c2cc(F)ccc2[n+]1[O-])C(C)(C)C (stereo not drawn) [SRI-012283] | Vero cells | < | 2.5
[O-][n+]1nc(NC2CC3CCC2C3)[n+]([O-])c2cc3c(cc21)CCCC3 (stereo not drawn) [SRI-012498] | Vero cells | = | 50
[O-][n+]1nc(N[C@@H]2C[C@H]3CC[C@@H]2C3)[n+]([O-])c2cc3c(cc21)CCC3 (racemic) [SRI-012404] | Vero cells | = | 50

====

// values below are reported TB MIC - ITR
- Tested on: Mtb H37Rv
- assay-details: TB MIC - ITR (UIC), Institute for Tuberculosis Research
- Format: cell-based, Mycobacterium tuberculosis
- recorded-conditions: Tables 1-4

compound | TB MIC - ITR / µg/mL
O=S1(=O)CCN(c2n[n+]([O-])c3cc4c(cc3[n+]2[O-])CCC4)CC1 [Compound 20v] | 15
[O-][n+]1nc(N[C@H]2[C@@H]3C[C@H]4C[C@@H](C3)C[C@@H]2C4)[n+]([O-])c2ccccc21 [Compound 8n] | 1.9
CCNc1n[n+]([O-])c2cccc(C)c2[n+]1[O-] [Compound 15ea] | 0.51
[O-][n+]1nc(NC2CCC2)[n+]([O-])c2cc3c(cc21)CCC3 [Compound 15fd] | 0.96
